The reported measurements were obtained from the supplement of paper PMC6555819.

Exercise: state measured PBM binding z-score for each of the sequences provided.
Test system: PPARg:RXRa 270nM:90nM, anti-RXR (NR concentration 270 nM, RXRa partner concentration 90 nM)
assay.overview: PBM binding z-score (relative to random genomic background probes); higher = stronger binding; sequences stand for … in GC…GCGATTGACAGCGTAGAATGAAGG
Give bare numbers.

Previously resolved entries follow.
{"seq.text": "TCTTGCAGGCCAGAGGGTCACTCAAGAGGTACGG", "PBM binding z-score": 3.39}
{"seq.text": "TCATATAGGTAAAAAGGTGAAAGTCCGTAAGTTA", "PBM binding z-score": 5.05}
{"seq.text": "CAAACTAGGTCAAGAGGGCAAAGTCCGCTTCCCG", "PBM binding z-score": 7.36}
{"seq.text": "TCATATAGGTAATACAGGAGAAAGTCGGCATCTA", "PBM binding z-score": 2.37}
{"seq.text": "TCTTGCAGATCAAGCAGGTTAAGAAAGCCTGAGT", "PBM binding z-score": 0.302}
{"seq.text": "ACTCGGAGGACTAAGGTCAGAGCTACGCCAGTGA", "PBM binding z-score": 2.96}

// batch mode: one PBM binding z-score value per listed entry
1. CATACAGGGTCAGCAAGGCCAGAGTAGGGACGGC
2. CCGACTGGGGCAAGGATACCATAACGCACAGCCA
3. GGAACGAGGGCATTCGAGTTGATGGCATGGCGAT
4. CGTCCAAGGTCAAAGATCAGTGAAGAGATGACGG

1: 3.27; 2: 1.16; 3: 0.324; 4: 6.43

// batch mode: one PBM binding z-score value per listed entry
1. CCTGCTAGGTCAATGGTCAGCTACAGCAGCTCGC
2. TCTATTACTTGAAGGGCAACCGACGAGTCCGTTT

1. 5.1
2. 2.11

---

Tested on: RARb:RXRa (NR concentration 270 nM, RXRa partner concentration 90 nM)
assay.overview: PBM binding z-score (relative to random genomic background probes); higher = stronger binding; sequences stand for … in GC…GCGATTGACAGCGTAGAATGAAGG
Parameter threshold = 0.9. Response is label 1 when PBM binding z-score meets or exceeds it, else label 0.

{"seq.text": "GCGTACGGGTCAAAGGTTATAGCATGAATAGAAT", "class.assignment": "label 1"}
{"seq.text": "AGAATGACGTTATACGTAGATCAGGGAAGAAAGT", "class.assignment": "label 0"}
{"seq.text": "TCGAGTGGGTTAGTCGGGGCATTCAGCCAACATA", "class.assignment": "label 0"}

Check this sequence for PBM binding z-score at or above 0.9: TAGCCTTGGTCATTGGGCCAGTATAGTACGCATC
label 0

---

Test system: PPARa:RXRa (NR concentration 270 nM, RXRa partner concentration 90 nM)
assay.overview: PBM binding z-score (relative to random genomic background probes); higher = stronger binding; sequences stand for … in GC…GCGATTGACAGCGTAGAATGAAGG
measurement.kind: PBM binding z-score

{"seq.text": "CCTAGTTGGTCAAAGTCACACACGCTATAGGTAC", "system.tested": "PPARa:RXRa (NR concentration 270 nM, RXRa partner concentration 90 nM)", "PBM binding z-score": 0.517}
{"seq.text": "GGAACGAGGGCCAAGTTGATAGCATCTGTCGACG", "system.tested": "PPARa:RXRa (NR concentration 270 nM, RXRa partner concentration 90 nM)", "PBM binding z-score": 0.213}
{"seq.text": "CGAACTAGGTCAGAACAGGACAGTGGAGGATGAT", "system.tested": "PPARa:RXRa (NR concentration 270 nM, RXRa partner concentration 90 nM)", "PBM binding z-score": 2.93}

// batch mode: one PBM binding z-score value per listed entry
1. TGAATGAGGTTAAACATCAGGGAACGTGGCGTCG
2. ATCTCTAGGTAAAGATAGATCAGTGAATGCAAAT
3. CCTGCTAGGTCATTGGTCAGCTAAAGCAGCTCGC
4. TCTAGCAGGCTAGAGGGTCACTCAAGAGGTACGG
5. ATACCAAGGTGCTCGTGAGGTCGTTGATACTAAC
6. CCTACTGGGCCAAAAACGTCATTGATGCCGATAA

1: 3.88; 2: 0.00369; 3: 3.56; 4: 2.4; 5: 0.836; 6: 0.119

---

Test system: PPARg:RXRa 30nM:10nM, anti-RXR (NR concentration 30 nM, RXRa partner concentration 10 nM)
assay.overview: PBM binding z-score (relative to random genomic background probes); higher = stronger binding; sequences stand for … in GC…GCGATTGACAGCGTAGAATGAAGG
measurement.kind: PBM binding z-score
Give bare numbers.

Previously resolved entries follow.
{"seq.text": "GCGAGTGGGGCATCAGCAGGTTACCATAACTTAA", "measurement.kind": "PBM binding z-score", "value.measured": -0.218}
{"seq.text": "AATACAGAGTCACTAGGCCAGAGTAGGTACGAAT", "measurement.kind": "PBM binding z-score", "value.measured": 0.184}
{"seq.text": "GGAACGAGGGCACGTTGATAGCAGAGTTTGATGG", "measurement.kind": "PBM binding z-score", "value.measured": 0.331}
{"seq.text": "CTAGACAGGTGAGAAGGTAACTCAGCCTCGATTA", "measurement.kind": "PBM binding z-score", "value.measured": 0.0715}
{"seq.text": "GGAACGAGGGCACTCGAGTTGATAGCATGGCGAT", "measurement.kind": "PBM binding z-score", "value.measured": -0.139}

Continue with the next sequence.
Under PPARg:RXRa 30nM:10nM, anti-RXR (NR concentration 30 nM, RXRa partner concentration 10 nM): report PBM binding z-score of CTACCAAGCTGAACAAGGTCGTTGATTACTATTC .
-0.206

---

System: PPARg:RXRa IVT, anti-PPARg (NR concentration 270 nM, RXRa partner concentration 90 nM)
assay.overview: PBM binding z-score (relative to random genomic background probes); higher = stronger binding; sequences stand for … in GC…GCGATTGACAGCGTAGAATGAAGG
Exercise: state measured PBM binding z-score for each of the sequences provided.
Answers are plain numbers.

Previously resolved entries follow.
{"seq.text": "TCGAGTAGGTTAGCCGGGGCATTCAGCCAACATA", "PBM binding z-score": 1.45}
{"seq.text": "CCTTACGGGTCACTGCCAGGTTATAGCATTTGGA", "PBM binding z-score": 3.87}

// batch mode: one PBM binding z-score value per listed entry
1. GCTAGTTGGTCAGTAAGAGGTCACACACCGGTCG
2. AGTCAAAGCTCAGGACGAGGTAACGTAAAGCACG
3. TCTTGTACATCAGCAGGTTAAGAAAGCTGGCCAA
4. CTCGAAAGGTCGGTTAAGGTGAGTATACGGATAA
5. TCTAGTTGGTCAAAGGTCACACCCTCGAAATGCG
6. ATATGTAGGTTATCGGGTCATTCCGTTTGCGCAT

1. 2.75
2. -0.0403
3. 0.722
4. 1.14
5. 6.43
6. 7.62

// batch mode: one PBM binding z-score value per listed entry
1. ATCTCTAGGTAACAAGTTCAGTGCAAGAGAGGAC
2. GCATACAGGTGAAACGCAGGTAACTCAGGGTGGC

2.92
1.78

// batch mode: one PBM binding z-score value per listed entry
1. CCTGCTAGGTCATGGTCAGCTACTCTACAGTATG
2. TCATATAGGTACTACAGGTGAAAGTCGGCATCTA

3.88
1.16

---

Test system: VDR:RXRa (NR concentration 270 nM, RXRa partner concentration 90 nM)
assay.overview: PBM binding z-score (relative to random genomic background probes); higher = stronger binding; sequences stand for … in GC…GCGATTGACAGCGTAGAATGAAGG
Parameter threshold = 1. Response is true when PBM binding z-score meets or exceeds it, else false.

{"seq.text": "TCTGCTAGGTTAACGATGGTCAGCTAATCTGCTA", "system.tested": "VDR:RXRa (NR concentration 270 nM, RXRa partner concentration 90 nM)", "class.assignment": "false"}
{"seq.text": "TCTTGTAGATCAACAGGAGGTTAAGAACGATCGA", "system.tested": "VDR:RXRa (NR concentration 270 nM, RXRa partner concentration 90 nM)", "class.assignment": "false"}

Check this sequence for PBM binding z-score at or above 1: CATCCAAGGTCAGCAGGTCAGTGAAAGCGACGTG
true

Check this sequence for PBM binding z-score at or above 1: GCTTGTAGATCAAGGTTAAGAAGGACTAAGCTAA
false

Check this sequence for PBM binding z-score at or above 1: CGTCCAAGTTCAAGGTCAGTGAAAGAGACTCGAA
true

Check this sequence for PBM binding z-score at or above 1: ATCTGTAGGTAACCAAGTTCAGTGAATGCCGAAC
true

Check this sequence for PBM binding z-score at or above 1: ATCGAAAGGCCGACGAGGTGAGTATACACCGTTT
false

Check this sequence for PBM binding z-score at or above 1: GCTCGGAGGATAAGGTCAGAGCTTTGTCCGTAGA
true

Check this sequence for PBM binding z-score at or above 1: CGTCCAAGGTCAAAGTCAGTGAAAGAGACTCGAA
true

Check this sequence for PBM binding z-score at or above 1: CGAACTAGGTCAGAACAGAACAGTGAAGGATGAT
false

Check this sequence for PBM binding z-score at or above 1: TCTGTTAGGTCAACGATGGTCAGCTAATCTGCTA
true

Check this sequence for PBM binding z-score at or above 1: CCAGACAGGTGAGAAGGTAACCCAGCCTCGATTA
false
